All figures here come from a melting point compilation (Tetko et al.; mined from patent text by program, amines drawn as free bases though some values may be those of a salt).

Measured melting point values are reported for all entries that follow.

{"molecule": "O=C1CC(Cc2cccc(Cl)c2)CN1 (stereo not given)", "melting point": "117 to 119 °C"}
{"molecule": "COc1cc(Cn2c(=S)sc3ccccc32)cc(OC)c1O", "melting point": "141 to 142 °C"}
{"molecule": "N#Cc1cnn(-c2ccc(Cl)c(Cl)c2Cl)c1C=CC(=O)O", "melting point": "215 to 219 °C"}
{"molecule": "COC(=O)c1ccc(C(=O)Nc2cc3c4c(c2)CCCC4CCC3)cc1", "melting point": "217 to 218 °C"}
{"molecule": "COc1ccc(C(=O)C2=C(c3ccccc3)c3ccccc3S2=O)cc1 (stereo not given)", "melting point": "118 to 120 °C"}
{"molecule": "CC(=NNC(=O)c1cccc(C)c1)c1cc(Cl)cc(Cl)c1O", "melting point": "221 to 223 °C"}
{"molecule": "COC(=O)c1ccc2cc(-c3ccc(OC)cc3)oc2c1", "melting point": "163 to 164 °C"}
{"molecule": "OC1CNc2nc3ccccc3n2C1 (stereo not given)", "melting point": "158 to 160 °C"}
{"molecule": "COc1cc(C)c2cc(C(=O)c3ccc(C(=O)O)cc3)ccc2c1C", "melting point": "240 °C"}
{"molecule": "Oc1ccc(F)cc1C=C(Cl)Cl", "melting point": "55 to 57 °C"}
{"molecule": "CC=CC=CC(=O)N1CC1C#N (stereo not given)", "melting point": "56 to 58 °C"}
{"molecule": "O=c1c2ccccc2n(CCCCl)c2ccc(Cl)cc12", "melting point": "141 °C"}
{"molecule": "Cc1ccc(O)c(-c2nc(N(C)C)sc2C(c2ccc(N(C)C)cc2)c2ccc(N(C)C)cc2)c1", "melting point": "189 to 191 °C"}
{"molecule": "CCCCN1C(=O)c2cnc(-c3ccccc3)nc2N(C(=O)CN2CCN(C)CC2)c2ccccc21", "melting point": "90 to 94 °C"}
{"molecule": "CC(C)(C)OC(=O)N1CCN(c2ccc(-c3ccnc(Cl)n3)cn2)CC1", "melting point": "182 to 183 °C"}
{"molecule": "CC(C)(C#N)Cc1ccc(-c2ccc(CC(C)(C)C#N)c(Cl)c2)cc1Cl", "melting point": "148 to 156 °C"}
{"molecule": "COc1ccc(C(=O)c2ccccc2F)c(O)c1Cl", "melting point": "132 to 133 °C"}
{"molecule": "O=C1[C@H](CC[C@H](O)c2ccc(F)cc2)[C@@H](c2ccc(OS(=O)(=O)C(F)(F)F)cc2)N1c1ccc(F)cc1", "melting point": "122 °C"}
{"molecule": "O=C(O)c1cc(-c2ccc3occc3c2)nn(Cc2ccc(F)cc2)c1=O", "melting point": "207 to 210 °C"}
{"molecule": "C=COCCN1CCC(Nc2nc3ccccc3n2Cc2ccc(F)cc2)CC1", "melting point": "138 °C"}
{"molecule": "CC1=C(S(C)(=O)=O)C(c2ccc(Cl)c(Cl)c2)C2=C(CCC2=O)N1 (stereo not given)", "melting point": "218 to 220 °C"}
{"molecule": "OCCCc1ccc2oc(Cc3ccc4ccccc4c3)nc2c1", "melting point": "102 to 103 °C"}
{"molecule": "O=C(O)c1ccc(CN2Cc3ccccc3Cc3ccccc32)cc1", "melting point": "198 °C"}
{"molecule": "Nc1c(CC(=O)O)cccc1Oc1cc(Cl)cc(Cl)c1", "melting point": "113 to 115 °C"}
{"molecule": "CC(=O)Nc1cccc(-n2ccnc2C)c1", "melting point": "238 to 240 °C"}
{"molecule": "CN1C(=O)C(c2ccccc2)=C(c2cn(C)c3ccccc23)C1=O", "melting point": "242 to 246 °C"}
{"molecule": "O=C(CCCOCCc1ccc2ccccc2c1)c1ccc(F)cc1", "melting point": "68 to 70 °C"}
{"molecule": "CC(C)(C)OC(=O)NC1CCc2ccc(C=O)cc2C1 (stereo not given)", "melting point": "98 to 101 °C"}
{"molecule": "COc1cc(OC)c2c(=O)[nH]c(-c3ccc(OCCN(C(=O)OC(C)(C)C)C(C)C)c(-c4ccc(S(C)=O)cc4)n3)nc2c1 (stereo not given)", "melting point": "114 to 116 °C"}
{"molecule": "Nc1ccc(NC(=O)N2CCc3cc(S(=O)(=O)N4CC(c5ccccc5)NC4=O)ccc32)cc1 (stereo not given)", "melting point": "158 to 160 °C"}
{"molecule": "COC1(c2csc(Sc3ccc(/C(C)=N/O)cn3)c2)CCOCC1", "melting point": "151 to 153 °C"}
{"molecule": "Cc1ccn2c(-c3ccnc(-c4ccc(OCCN5CCCC5)cc4)c3)c(-c3cccc(C)n3)nc2c1", "melting point": "163 °C"}
{"molecule": "Brc1ccnc2cc3c(cc12)OCO3", "melting point": "147 to 149 °C"}
{"molecule": "COc1cc(C(=CN(C)C)C(C)=O)ccc1OCC(O)CN1CCN(c2ccccc2C)CC1 (stereo not given)", "melting point": "95 °C"}
{"molecule": "O=C(O)CCCNC(=O)c1ccccc1NC(=O)c1ccccc1Br", "melting point": "117 to 118 °C"}
{"molecule": "O=c1cc(-c2ccncc2)nc2n1CCC(C(F)(F)F)N2 (stereo not given)", "melting point": "302 to 304 °C"}
{"molecule": "CC(=O)Nc1ccn(C2OC(CO[Si](c3ccccc3)(c3ccccc3)C(C)(C)C)CC2F)c(=O)n1 (stereo not given)", "melting point": "81 to 86 °C"}
{"molecule": "Cc1cc2c(cc1Cl)C(c1ccccc1)(N1CCOCC1)ON2C(C)(C)C (stereo not given)", "melting point": "131 to 133 °C"}
{"molecule": "C#CCOc1cccc(OC)c1-c1nc2cnncc2[nH]1", "melting point": "259 °C"}
{"molecule": "CN(C)c1nn(C(=O)NC(C)(C)CF)c(=O)n1NCc1cccc(Cl)c1", "melting point": "158 °C"}
